Target: GAT3 L314Q (Homo sapiens, UniProt P48066, L314Q)
Construct: expressed in transfected cells; host or cells: tsA201 (transformed HEK293), transient
Sequence (P48066 whole entry L314Q): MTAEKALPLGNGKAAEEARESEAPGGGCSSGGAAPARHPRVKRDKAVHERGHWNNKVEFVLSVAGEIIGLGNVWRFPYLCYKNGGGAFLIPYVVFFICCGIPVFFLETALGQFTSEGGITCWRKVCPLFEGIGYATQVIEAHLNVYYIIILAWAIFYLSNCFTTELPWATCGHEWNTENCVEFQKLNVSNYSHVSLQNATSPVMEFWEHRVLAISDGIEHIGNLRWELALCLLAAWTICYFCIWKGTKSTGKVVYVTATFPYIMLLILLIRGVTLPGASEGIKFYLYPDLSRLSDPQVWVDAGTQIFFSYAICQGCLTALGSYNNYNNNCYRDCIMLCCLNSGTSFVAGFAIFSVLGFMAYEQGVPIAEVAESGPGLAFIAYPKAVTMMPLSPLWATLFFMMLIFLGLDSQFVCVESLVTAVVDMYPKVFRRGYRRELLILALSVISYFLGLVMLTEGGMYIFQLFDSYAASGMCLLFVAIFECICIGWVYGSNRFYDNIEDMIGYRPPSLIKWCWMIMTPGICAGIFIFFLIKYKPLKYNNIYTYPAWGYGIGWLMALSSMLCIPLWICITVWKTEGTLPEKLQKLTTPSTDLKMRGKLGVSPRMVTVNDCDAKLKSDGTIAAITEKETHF
Assay: [3H]GABA uptake assay, transient expression in tsA201 cells
Type: cell-based
Conditions: GAT3 L314Q, tsA201 cells; read-out: IC50
Measured endpoint: pIC50
pIC50 (log units): -log10 of the concentration in mol/L.

[
  {
    "Compound string": "CN[C@@]12CC[C@H](C(=O)O)[C@@H]1C2",
    "pIC50": 3.54
  }
]

Switching to the query record.
pIC50 for N[C@@]12CC[C@H](C(=O)O)[C@@H]1C2 is 4.80
